Target: T1, mfPRLR.mmh (soluble monomeric macaca fascicularis PRLR) (macaca fascicularis)
T1 construct: soluble monomeric PRLR protein; also called macaca fascicularis (mf) PRLR.mmh; monkey PRLR
T1 chain: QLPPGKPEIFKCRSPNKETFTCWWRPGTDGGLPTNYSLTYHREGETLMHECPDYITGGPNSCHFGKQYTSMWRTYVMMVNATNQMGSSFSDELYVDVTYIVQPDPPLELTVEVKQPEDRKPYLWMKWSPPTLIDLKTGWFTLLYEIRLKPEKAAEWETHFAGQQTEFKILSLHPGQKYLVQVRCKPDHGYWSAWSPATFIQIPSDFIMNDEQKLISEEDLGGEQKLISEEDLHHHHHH
Test: SPR (Biacore), antibody capture, 37 C
# key: entry, value: kon
Answer with a number only, understood to be in M⁻¹ s⁻¹.

INSERT INTO assay_data (binder, unit_spec, meas_value) VALUES
  ('H1H6801P (antibody, human IgG1, V domains shown, human IgG1 Fc (H1H)) VH: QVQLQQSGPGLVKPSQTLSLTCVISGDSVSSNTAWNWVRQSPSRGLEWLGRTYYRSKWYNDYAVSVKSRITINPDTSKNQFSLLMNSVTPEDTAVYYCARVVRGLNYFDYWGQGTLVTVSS VL: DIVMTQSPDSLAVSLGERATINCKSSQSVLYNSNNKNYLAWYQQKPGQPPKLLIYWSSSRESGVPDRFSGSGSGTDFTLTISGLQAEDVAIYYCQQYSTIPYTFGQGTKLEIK', 'M⁻¹ s⁻¹', 711000),
  ('H1H6793P (antibody, human IgG1, V domains shown, human IgG1 Fc (H1H)) VH: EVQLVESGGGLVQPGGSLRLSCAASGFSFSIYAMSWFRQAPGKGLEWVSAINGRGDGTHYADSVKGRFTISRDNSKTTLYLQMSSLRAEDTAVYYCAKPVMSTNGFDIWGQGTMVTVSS VL: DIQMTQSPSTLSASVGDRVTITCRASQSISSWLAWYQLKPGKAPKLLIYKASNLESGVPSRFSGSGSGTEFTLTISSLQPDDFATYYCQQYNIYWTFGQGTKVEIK', 'M⁻¹ s⁻¹', 233000);

Read the next record carefully.
// sample H1H6800P (antibody, human IgG1, V domains shown, human IgG1 Fc (H1H)) VH: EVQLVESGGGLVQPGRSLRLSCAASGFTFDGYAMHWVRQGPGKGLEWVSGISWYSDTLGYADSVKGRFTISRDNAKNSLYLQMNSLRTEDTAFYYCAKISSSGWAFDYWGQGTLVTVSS VL: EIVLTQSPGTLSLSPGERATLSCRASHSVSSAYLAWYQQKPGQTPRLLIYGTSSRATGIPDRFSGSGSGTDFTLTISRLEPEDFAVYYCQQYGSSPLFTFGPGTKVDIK , its kon was 439000

Where do the numbers come from? From patent US20180185504A1.
